# melting point annotations

Some molecules with recorded melting point:
- smiles.repr: "CC(C)Cn1c(CO)nc2c(N)nc3cccnc3c21"
  melting point: "226 to 228 °C"
- smiles.repr: "OCC(CO)Cc1cccc(Br)c1"
  melting point: "61 to 63 °C"
- smiles.repr: "c1ccc(Nc2csc(-c3cn[nH]c3)n2)nc1"
  melting point: "209 to 210 °C"

**Q:** Would you mind telling me what melting point value was observed for CC(=O)N[C@H](COC(F)F)C(=O)NCc1ccc(F)cc1 ?
**A:** 163 °C

**Q:** Would you mind telling me what melting point value was observed for Cc1cc(C(=O)CS(C)(=O)=O)cc(C)c1N(C)C ?
**A:** 132 to 133 °C

**Q:** Would you mind telling me what melting point value was observed for CCOC(=O)c1cnn(-c2ccc(Cl)cc2Cl)c1C#N ?
**A:** 79 to 81 °C
